molecular target: Epithelial discoidin domain-containing receptor 1 (Homo sapiens); assay: Inhibition of DDR1 at 1 uM
READOUT_NAME: inhibition

These solved cases illustrate the format of a correct answer.
| COMPOUND_STRUCTURE_STRING | inhibition |
| --- | --- |
| FC(F)(F)c1ccc(Cl)cc1CN1CCNc2ncc(-c3ccnc(N4CCNCC4)c3)cc21 | 96% |
| CC(=O)N1CCN(c2cc(-c3cnc4c(c3)N(Cc3cc(Cl)ccc3C(F)(F)F)CCN4)ccn2)CC1 | < 50% |
| CN1CCN(c2ccc(-c3cnc4c(c3)N(Cc3cc(Cl)ccc3Cl)CCN4)cn2)CC1 | < 50% |
| CN1CCN(c2ccc(-c3cnc4c(c3)N(Cc3cc(Cl)ccc3C(F)(F)F)CCN4)cn2)CC1 | < 50% |
| COC1CCN(C(=O)c2ccc(-c3cnc4c(c3)N(Cc3cc(Cl)ccc3C(F)(F)F)CCN4)cc2)CC1 | < 50% |

In: # returns recorded inhibition (system: Epithelial discoidin domain-containing receptor 1 (Homo sapiens)) for `CN1CCN(c2ccc(-c3cnc4c(c3)N(Cc3c(F)ccc(F)c3Cl)CCN4)cn2)CC1`
Out: < 50%

In: # returns recorded inhibition (system: Epithelial discoidin domain-containing receptor 1 (Homo sapiens)) for `O=C(c1ccc(-c2cnc3c(c2)N(Cc2cc(Cl)ccc2C(F)(F)F)CCN3)cc1)N1CCC(N2CCCC2)CC1`
Out: 84%

In: # returns recorded inhibition (system: Epithelial discoidin domain-containing receptor 1 (Homo sapiens)) for `O=C(O)c1ccc(-c2cnc3c(c2)N(Cc2cc(Cl)ccc2C(F)(F)F)CCN3)cc1`
Out: < 50%

In: # returns recorded inhibition (system: Epithelial discoidin domain-containing receptor 1 (Homo sapiens)) for `CN1CCN(c2ccc(-c3cnc4c(c3)N(Cc3cc(F)ccc3F)CCN4)cn2)CC1`
Out: < 50%

In: # returns recorded inhibition (system: Epithelial discoidin domain-containing receptor 1 (Homo sapiens)) for `O=C(c1ccc(-c2cnc3c(c2)N(Cc2cc(Cl)ccc2C(F)(F)F)CCN3)cc1)N1CCCCC1`
Out: < 50%

Cited source: ChEMBL document CHEMBL1165965
